# subject-of-test: recombinant Rhesus Macaque IL-18 (Rhesus Macaque, UniProt Q9BGI5 37-193)
# protocol-notes: cell-based or functional assay
test-readout: IC50, IFNγ release KG-1 cell assay, Rhesus Macaque IL-18

Antibody 9 scFv (scFv, V domains shown) VH: QVQLQQSGPRLVEPSQTLSLTCTVSGGSISSDGYYWSWIRQPAGKGLEWIGSIYYSGSTYYNPSLKSRVTISGDTPKNQFSLKLSSVTAADTAVYYCARTPAYFGQDRTDFFDVWGRGTLVTVSS VL: DIVMTQSPSTLSASVGDRVTITCRASQGISSWLAWYQQKPGRAPKVLIYKASTLESGVPSRFSGSGSGTDFTLTISSLQPEDFATYYCQQSHHPPWTFGQGTKLEIK ... 2.17 nM
Antibody 6 scFv (scFv) QVQLQQSGPRLVKPSQTLSLTCTVSGGSISSGGYYWSWIRQPAGKGLEWIGSIYYSGSTYYNPSLKSRVTISGDTPKNQFSLKLSSVTAADTAVYYCARTPAYFGQDRTDFFDVWGRGTLVTVSSDIVMTQSPSTLSASVGDRVTITCRASQGISSWLAWYQQKPGRAPKVLIYKASTLESGVPSRFSGSGSGTDFTLTISSLQPEDFATYYCANIAFPPWTFGQGTKLEIK ... 65.7 nM
Antibody 10 scFv (scFv, V domains shown) VH: QVQLQQSGPRLVEPSQTLSLTCTVSGGSISSDGYYWSWIRQPAGKGLEWIGSIYYSGSTYYNPSLRSRVTISGDTPKNQFSLKLSSVTAADTAVYYCARTPAYFGQDRTDFFDVWGRGTLVTVSS VL: DIVMTQSPSTLSASVGDRVTITCRASQGISSWLAWYQQKPGGAPKVLIYKASTLESGVPSRFSGSGSGTDFTLTISSLQPEDFATYYCQQSHHPPWTFSQGTKLEIK ... 2.92 nM

// switching to the query binder
Value lookup for IC50, IFNγ release KG-1 cell assay, Rhesus Macaque IL-18; key = Antibody 7 scFv (scFv) QVQLQQSGPRLVKPSQTLSLTCTVSGGSISSGGYYWSWIRQPAGKGLEWIGSIYYSGSTYYNPSLKSRVTISGDTPKNQFSLKLSSVTAADTAVYYCARTPAYFGQDRTDFFDVWGRGTLVTVSSDIVMTQSPSTLSASVGDRVTITCRASQGISSWLAWYQQKPGRAPKVLIYKASTLESGVPSRFSGSGSGTDFTLTISSLQPEDFATYYCQQSHHPPWTFGQGTKLEIK
24.9 nM
